test: Probe fluorescence ratio response to linolenic acid relative to ADIFAB2; type: binding; details: response relative to ADIFAB2
Assign classes using reported DR/DR LNA values and the ranges Low (below 1), Medium (1 to below 2), High (2 or more), please.

Here's what some known entries look like.
{"MOLECULE": "72T 74S (protein, listed as Rattus norvegicus, PEPTIDE (1)...(131) wild-type rat intestinal fatty acid binding protein) AFDGTWKVDRNENYEKFMEKMGINVVKRKLGAHDNLKLTITQEGNKFTVKESSNFRNIDVVFELGVDFAYSTASGTELTGTWTMEGNKLVGKFKRVDNGKELIAVREISGNELIQTYTYEGVEAKRIFKKE", "LABEL_CLASS": "High"}
{"MOLECULE": "40V, 72A (protein, listed as Rattus norvegicus, PEPTIDE (1)...(131) wild-type rat intestinal fatty acid binding protein) AFDGTWKVDRNENYEKFMEKMGINVVKRKLGAHDNLKLTVTQEGNKFTVKESSNFRNIDVVFELGVDFAYSAADGTELTGTWTMEGNKLVGKFKRVDNGKELIAVREISGNELIQTYTYEGVEAKRIFKKE", "LABEL_CLASS": "Medium"}
{"MOLECULE": "73N 72A 74F (protein, listed as Rattus norvegicus, PEPTIDE (1)...(131) wild-type rat intestinal fatty acid binding protein) AFDGTWKVDRNENYEKFMEKMGINVVKRKLGAHDNLKLTITQEGNKFTVKESSNFRNIDVVFELGVDFAYSANFGTELTGTWTMEGNKLVGKFKRVDNGKELIAVREISGNELIQTYTYEGVEAKRIFKKE", "LABEL_CLASS": "Medium"}
{"MOLECULE": "49K1, 72A (protein, listed as Rattus norvegicus, PEPTIDE (1)...(131) wild-type rat intestinal fatty acid binding protein) AFDGTWKVDRNENYEKFMEKMGINVVKRKLGAHDNLKLTITQEGNKFTKKESSNFRNIDVVFELGVDFAYSAADGTELTGTWTMEGNKLVGKFKRVDNGKELIAVREISGNELIQTYTYEGVEAKRIFKKE", "LABEL_CLASS": "Medium"}
{"MOLECULE": "55R1, 72A (protein, listed as Rattus norvegicus, PEPTIDE (1)...(131) wild-type rat intestinal fatty acid binding protein) AFDGTWKVDRNENYEKFMEKMGINVVKRKLGAHDNLKLTITQEGNKFTVKESSNRRNIDVVFELGVDFAYSAADGTELTGTWTMEGNKLVGKFKRVDNGKELIAVREISGNELIQTYTYEGVEAKRIFKKE", "LABEL_CLASS": "Low"}

**Query** Which band does 38I3, 72A (protein, listed as Rattus norvegicus, PEPTIDE (1)...(131) wild-type rat intestinal fatty acid binding protein) AFDGTWKVDRNENYEKFMEKMGINVVKRKLGAHDNLKITITQEGNKFTVKESSNFRNIDVVFELGVDFAYSAADGTELTGTWTMEGNKLVGKFKRVDNGKELIAVREISGNELIQTYTYEGVEAKRIFKKE fall in?
**Result** Medium

**Query** Lab log: 82F, 72A (protein, listed as Rattus norvegicus, PEPTIDE (1)...(131) wild-type rat intestinal fatty acid binding protein) AFDGTWKVDRNENYEKFMEKMGINVVKRKLGAHDNLKLTITQEGNKFTVKESSNFRNIDVVFELGVDFAYSAADGTELTGTFTMEGNKLVGKFKRVDNGKELIAVREISGNELIQTYTYEGVEAKRIFKKE — assign DR/DR LNA category
**Result** Low

**Query** Input 21Y 78I 102I 72A (protein, listed as Rattus norvegicus, PEPTIDE (1)...(131) wild-type rat intestinal fatty acid binding protein) AFDGTWKVDRNENYEKFMEKYGINVVKRKLGAHDNLKLTITQEGNKFTVKESSNFRNIDVVFELGVDFAYSAADGTEITGTWTMEGNKLVGKFKRVDNGKEIIAVREISGNELIQTYTYEGVEAKRIFKKE ; output its category
**Result** High

**Query** Exam item: assign 18V 31F 73M 72A (protein, listed as Rattus norvegicus, PEPTIDE (1)...(131) wild-type rat intestinal fatty acid binding protein) AFDGTWKVDRNENYEKFVEKMGINVVKRKLFAHDNLKLTITQEGNKFTVKESSNFRNIDVVFELGVDFAYSAMDGTELTGTWTMEGNKLVGKFKRVDNGKELIAVREISGNELIQTYTYEGVEAKRIFKKE to the correct category.
**Result** Medium

**Query** Entry 55K1, 72A (protein, listed as Rattus norvegicus, PEPTIDE (1)...(131) wild-type rat intestinal fatty acid binding protein) AFDGTWKVDRNENYEKFMEKMGINVVKRKLGAHDNLKLTITQEGNKFTVKESSNKRNIDVVFELGVDFAYSAADGTELTGTWTMEGNKLVGKFKRVDNGKELIAVREISGNELIQTYTYEGVEAKRIFKKE belongs to which category?
**Result** Low
